Measurement description: folding enthalpy; higher = less favourable; fluorescence melt of hairpins on a sequencing array, two-state fit
Run parameters: sodium 0.088 M
What folding enthalpy was measured for each of the following?
Field format: number, assumed kJ/mol, no unit text.

Request: Name the reported folding enthalpy value associated with the sequence GTCGCGGGAAACTGCGAC (((((.(....).)))))
Response: -173

Request: I would be grateful if you could share the reported folding enthalpy for GTCAACGGAAACGTCGAC (((.(((....))).))) .
Response: -138

Request: Which folding enthalpy value belongs to GCCCTACGAAAGTAAGGC (((.(((....))).))) ?
Response: -131

Request: I am curious: what folding enthalpy value has been reported for GATCTACCCGTAGATC ((((((....)))))) ?
Response: -176

Request: Could you share which folding enthalpy value was measured for GCCGGGCGAAAGCCGTGC ((..(((....)))..)) ?
Response: -57.2

Request: Could you tell me which folding enthalpy is on file for GTTAGCGAAAGCTGTAAC ((((((....)))..))) ?
Response: -41

Request: # input sequence: GCGCGCGGAAACGCGCAC (.(((((....))))).) ; wanted: its folding enthalpy
Response: -31.2

Request: Query: folding enthalpy; subject: GTTCGTGGAAACACGGAC ((.((((....)))).))
Response: -178

Request: Item under review: GACCGACGAAAGTCCGTC (((.(((....))).))) . Reported folding enthalpy?
Response: -100

Request: Can you share its folding enthalpy? I mean this sequence: GTGCGCGAAAGCGTCAC ((((((....))).)))
Response: -88

Request: folding enthalpy lookup needed for GCTGTGCGAAAGCGCCGC ((.(.((....)).).)) , thanks.
Response: -77.7

Request: If you can, please state the reported folding enthalpy value of GATCATAACATGATC ((((((...)))))) .
Response: -155

Request: What measured folding enthalpy goes with GCCGGCGAAAGCCTCGGC ((((((....)))..))) ?
Response: -83.1

Request: Entry CTGTGGAAACACAG (((((....))))) : reported folding enthalpy = ?
Response: -82.6

Request: So what does the record say about folding enthalpy for GATCATCCCGATGATC ((((((....)))))) ?
Response: -217

Request: Look at this sequence and give its reported folding enthalpy. GTGAACGAAAGTTTCAC ((((((....))).)))
Response: -92.1

Request: I have this sequence here, GATCTATCAGTAGATC ((((((....)))))) , and I need its recorded folding enthalpy.
Response: -136

Request: Bench note: what folding enthalpy did GTCGCTGCGAAAGCAGAC (((..(((....)))))) show?
Response: -41.9

Request: Can you look up the measured folding enthalpy of GGCACAGGAAACTACGCC (((..((....))..))) for me?
Response: -125

Request: So what does the record say about folding enthalpy for GATCAACAAGTTGATC ((((((....)))))) ?
Response: -143

Request: # query: folding enthalpy of entry GCATCGCGAAAGCAACGC ((.(.((....)).).))
Response: -56.4

Request: Given GTGGACGAAAGTCTGCAC ((((((....)))..))) , state its recorded folding enthalpy.
Response: -65.9

Request: Which folding enthalpy value belongs to GGACCCGGAAACAGGTCC (((((.(....).))))) ?
Response: -166

Request: Item under review: GATCCGTCTCCGGATC ((((((....)))))) . Reported folding enthalpy?
Response: -166

Request: Item GGTTCAGCGAAAGCTACC (((..(((....)))))) has what recorded folding enthalpy?
Response: -67.1

Request: Entry GAATAAGAAATTATTC ((((((....)))))) has what folding enthalpy?
Response: -43.7

Request: Recorded folding enthalpy of GCAACCCGAAAGGGCTGC (((.(((....))).))) , please.
Response: -186

Request: Any idea what its folding enthalpy is? The sequence is GCGCACGAAAGTGTACGC ((((((....)))..)))
Response: -99.7

Request: Look at this sequence and give its reported folding enthalpy. GCGAGGCGAAAGCTTAGC ((.(.((....)).).))
Response: -69.9

Request: Give the measured folding enthalpy of GCCTTCGAAAGAAGGGC ((((((....))).))) .
Response: -62.8

Request: // folding enthalpy lookup, key: GCTGAACGAAAGTTAGC (((.(((....))))))
Response: -109

Request: Consider the sequence shown here: GGTAGACGAAAGTCCACC (((.(((....))).))) What is its recorded folding enthalpy?
Response: -99.5

Request: Give the measured folding enthalpy of GCCGAAGGAAACCTCGGC (((((.(....).))))) .
Response: -145

Request: So what's the measured folding enthalpy for this one? CGGATCGGAAACGACCG (((.(((....))))))
Response: -118

Request: Query (sequence): GGGTTGGGAAACCGACCC ((((.((....)).)))) ; field requested: folding enthalpy
Response: -190

Request: GET /values?readout=folding enthalpy&item= GCAACAGGAAACTGCTGC (((.(((....))).)))
Response: -126

Request: Which folding enthalpy reading was recorded for the sequence GAGAGCGAAAGCTTACTC ((((((....)))..))) ?
Response: -51.3

Request: Give the measured folding enthalpy of GGGATCGGAAACGGTCCC ((((.((....)).)))) .
Response: -199

Request: Find the recorded folding enthalpy belonging to GCGTGAGGAAACTCACAC (.(((((....))))).) and report it.
Response: -57.8

Request: Item under review: GGTCCCGAAAGGGTAACC ((((((....)))..))) . Reported folding enthalpy?
Response: -75.3

Request: I would be grateful if you could share the reported folding enthalpy for GTGATCGAAAGATGCCAC ((((((....)))..))) .
Response: -47.9

Request: folding enthalpy lookup needed for GATCCTTTGGAGGATC ((((((....)))))) , thanks.
Response: -165

Request: Query (sequence): GATCGCATAAGCGATC ((((((....)))))) ; field requested: folding enthalpy
Response: -136

Request: Tell me the measured folding enthalpy of GTCACGTCGAAAGACGAC (((..(((....)))))) , please.
Response: -41.2

Request: Looking for the measured folding enthalpy of CGAGCCGGAAACGGTCG (((.(((....)))))) , can you help?
Response: -114

Request: For the sequence shown here, GCGTTAGACGC ((((...)))) , give the reported folding enthalpy.
Response: -75.7

Request: Endpoint output: folding enthalpy of GGAAGTGGAAACGTTTCC ((((..(....)..)))) . Value?
Response: -55.6

Request: Report folding enthalpy for GAGGCGGGAAACCACCCC (.((.((....)).)).) please.
Response: -56.9

Request: Which folding enthalpy value is on record for GCTCTCGAAAGAGAAGC ((((((....))).))) ?
Response: -91.9

Request: Data request, read-out folding enthalpy, for GATGACGAAAGTCATC ((((((....))))))
Response: -152
